Origin of the recorded values: the supplement of paper PMC10567573

B1: PDZK1 (parent)
chain: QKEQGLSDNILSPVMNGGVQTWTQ

Variants of: B1
Measurement Description: protein stability index of a GFP-peptide fusion (GPS, HEK-293T) (PSI 1-6); higher = more stable;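 note: lentivirally expressed fusions sorted by FACS into six bins by GFP to DsRed ratio, PSI derived from sequencing read proportions per bin multiplied by bin number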
Setup Conditions: c terminus: a fixed tail appended
The threshold is inclusive: protein stability index of exactly 3 counts as YES; values below receive NO.

Study these solved cases before continuing.
# Mutation Descriptor, Group Label
records = [
    ("G17M", "NO"),
    ("E3F", "NO"),
    ("G5R", "NO"),
    ("S12I", "YES"),
    ("D8K", "NO"),
]

**Query** Check this variant for protein stability index at or above 3: `L11Q`
**Result** NO

**Query** Check this variant for protein stability index at or above 3: `Q1P`
**Result** YES
